Could you please report measured Cell viability for the items listed next?
# System: LO2 cells
# experiment: CCK8 cell viability, normal cell line LO2
# Type: cell-based, Human
# settings: LO2 normal liver cells, 25 μM, 72 h
I only need the number, in %, no unit after it.

Input: Endpoint output: Cell viability of COc1c2n(cc(C(=O)Nc3cccc(-c4cn(-c5cccc(Br)c5)nn4)c3)c1=O)CC1OCC(C)N1C2=O (centres unmarked) [Compound 5r] . Value?
Output: 127.81

Input: For COc1c2n(cc(C(=O)Nc3cccc(-c4cn(-c5ccccc5I)nn4)c3)c1=O)CC1OCC(C)N1C2=O (centres unmarked) [Compound 5o] then?
Output: 100.11

Input: For COc1c2n(cc(C(=O)Nc3cccc(-c4cn(Cc5ccccc5)nn4)c3)c1=O)CC1OCC(C)N1C2=O (centres unmarked) [Compound 6a] then?
Output: 127.44

Input: For COc1c2n(cc(C(=O)Nc3cccc(-c4cn(-c5ccccc5)nn4)c3)c1=O)CC1OCC(C)N1C2=O (centres unmarked) [Compound 5p] then?
Output: 109.72

Input: For COc1c2n(cc(C(=O)Nc3cccc(-c4cn(-c5cccc(C(F)(F)F)c5)nn4)c3)c1=O)CC1OCC(C)N1C2=O (centres unmarked) [Compound 5h] then?
Output: 101.34

Input: For COc1cccc(Cn2cc(-c3cccc(NC(=O)c4cn5c(c(OC)c4=O)C(=O)N4C(C)COC4C5)c3)nn2)c1 (centres unmarked) [Compound 6g] then?
Output: 130.54

Input: For CCc1ccccc1-n1cc(-c2cccc(NC(=O)c3cn4c(c(OC)c3=O)C(=O)N3C(C)COC3C4)c2)nn1 (centres unmarked) [Compound 5d] then?
Output: 127.81

Input: For COc1c2n(cc(C(=O)Nc3cccc(-c4cn(-c5ccc(F)cc5)nn4)c3)c1=O)CC1OCC(C)N1C2=O (centres unmarked) [Compound 5n] then?
Output: 127.86

Input: For COc1c2n(cc(C(=O)Nc3cccc(-c4cn(Cc5ccccc5C(F)(F)F)nn4)c3)c1=O)CC1OCC(C)N1C2=O (centres unmarked) [Compound 6e] then?
Output: 127.55

Input: For COc1c2n(cc(C(=O)Nc3cccc(-c4cn(Cc5ccccc5Br)nn4)c3)c1=O)CC1OCC(C)N1C2=O (centres unmarked) [Compound 6b] then?
Output: 126.52

Input: For COc1c2n(cc(C(=O)Nc3cccc(-c4cn(-c5cc(C(F)(F)F)ccc5C(F)(F)F)nn4)c3)c1=O)CC1OCC(C)N1C2=O (centres unmarked) [Compound 5k] then?
Output: 124.51

Input: For COc1ccccc1-n1cc(-c2cccc(NC(=O)c3cn4c(c(OC)c3=O)C(=O)N3C(C)COC3C4)c2)nn1 (centres unmarked) [Compound 5g] then?
Output: 128.56

Input: For COc1c2n(cc(C(=O)Nc3cccc(-c4cn(-c5cc(C(F)(F)F)cc(C(F)(F)F)c5)nn4)c3)c1=O)CC1OCC(C)N1C2=O (centres unmarked) [Compound 5e] then?
Output: 129.12

Input: For COc1c2n(cc(C(=O)Nc3cccc(-c4cn(-c5ccc(C(F)(F)F)cc5)nn4)c3)c1=O)CC1OCC(C)N1C2=O (centres unmarked) [Compound 5j] then?
Output: 108.63

====

Could you please report measured Cell viability for the items listed next?
# System: H460 cells
# experiment: CCK8 cell viability and IC50 measurement, H460
# Assay type: cell-based, Human
# settings: H460, 25 μM, 72 h
I only need the number, in %, no unit after it.

Input: Endpoint output: Cell viability of COc1c2n(cc(C(=O)Nc3cccc(-c4cn(-c5cccc(Br)c5)nn4)c3)c1=O)CC1OCC(C)N1C2=O (centres unmarked) . Value?
Output: 107.13

Input: For COc1c2n(cc(C(=O)Nc3cccc(-c4cn(-c5cccc(F)c5)nn4)c3)c1=O)CC1OCC(C)N1C2=O (centres unmarked) then?
Output: 100.16

Input: For COc1c2n(cc(C(=O)Nc3cccc(-c4cn(Cc5ccc(C(F)(F)F)cc5)nn4)c3)c1=O)CC1OCC(C)N1C2=O (centres unmarked) then?
Output: 105.14

Input: For COc1c2n(cc(C(=O)Nc3cccc(-c4cn(-c5cccc(C(F)(F)F)c5)nn4)c3)c1=O)CC1OCC(C)N1C2=O (centres unmarked) then?
Output: 75.09

Input: For COc1c2n(cc(C(=O)Nc3cccc(-c4cn(-c5ccc(F)cc5)nn4)c3)c1=O)CC1OCC(C)N1C2=O (centres unmarked) then?
Output: 105.04

Input: For COc1c2n(cc(C(=O)Nc3cccc(-c4cn(-c5ccccc5Br)nn4)c3)c1=O)CC1OCC(C)N1C2=O (centres unmarked) then?
Output: 94.59

Input: For COc1c2n(cc(C(=O)Nc3cccc(-c4cn(-c5cc(C(F)(F)F)cc(C(F)(F)F)c5)nn4)c3)c1=O)CC1OCC(C)N1C2=O (centres unmarked) then?
Output: 101.97

Input: For COc1ccccc1-n1cc(-c2cccc(NC(=O)c3cn4c(c(OC)c3=O)C(=O)N3C(C)COC3C4)c2)nn1 (centres unmarked) then?
Output: 99.43

Input: For COc1c2n(cc(C(=O)Nc3cccc(-c4cn(-c5ccccc5C(F)(F)F)nn4)c3)c1=O)CC1OCC(C)N1C2=O (centres unmarked) then?
Output: 65.75

Input: For COc1c2n(cc(C(=O)Nc3cccc(-c4cn(-c5cc(C(F)(F)F)ccc5C(F)(F)F)nn4)c3)c1=O)CC1OCC(C)N1C2=O (centres unmarked) then?
Output: 52.15

Input: For COc1c2n(cc(C(=O)Nc3cccc(-c4cn(Cc5ccccc5C)nn4)c3)c1=O)CC1OCC(C)N1C2=O (centres unmarked) then?
Output: 101.80

Input: For COc1c2n(cc(C(=O)Nc3cccc(-c4cn(-c5ccccc5)nn4)c3)c1=O)CC1OCC(C)N1C2=O (centres unmarked) then?
Output: 104.18

Input: For COc1c2n(cc(C(=O)Nc3cccc(-c4cn(-c5c(C)cc(C)cc5C)nn4)c3)c1=O)CC1OCC(C)N1C2=O (centres unmarked) then?
Output: 98.25

Input: For COc1c2n(cc(C(=O)Nc3cccc(-c4cn(-c5ccccc5I)nn4)c3)c1=O)CC1OCC(C)N1C2=O (centres unmarked) then?
Output: 104.29

====

# Test system: H460 cells
# experiment: CCK8 cell viability and IC50 measurement, H460
# Format: cell-based, Human
# settings: H460, 72 h, CCK8
quantity-name: pIC50
Would you please state pIC50, meaning minus log10 of the concentration in mol/L, as a bare number?

Input: Endpoint output: pIC50 of COc1c2n(cc(C(=O)Nc3cccc(-c4cn(Cc5ccccc5Cl)nn4)c3)c1=O)CC1OCC(C)N1C2=O (stereo not shown) . Value?
Output: 4.80

Input: For COc1c2n(cc(C(=O)Nc3cccc(-c4cn(Cc5ccccc5C(F)(F)F)nn4)c3)c1=O)CC1OCC(C)N1C2=O (stereo not shown) then?
Output: 4.64

====

Could you please report measured Cell viability for the items listed next?
# System: LO2 cells
# experiment: CCK8 cell viability, normal cell line LO2
# Format: cell-based, Human
# settings: LO2 normal liver cells, 25 μM, 72 h
I only need the number, in %, no unit after it.

Input: For LO2 cells, provide Cell viability of COc1c2n(cc(C(=O)Nc3cccc(-c4cn(-c5ccccc5OC(F)(F)F)nn4)c3)c1=O)CC1OCC(C)N1C2=O (stereo not drawn) please.
Output: 99.80

Input: For COc1c2n(cc(C(=O)Nc3cccc(-c4cn(Cc5ccccc5Cl)nn4)c3)c1=O)CC1OCC(C)N1C2=O (stereo not drawn) then?
Output: 88.86

Input: For COc1c2n(cc(C(=O)Nc3cccc(-c4cn(Cc5cccc(F)c5)nn4)c3)c1=O)CC1OCC(C)N1C2=O (stereo not drawn) then?
Output: 127.14

Input: For COc1c2n(cc(C(=O)Nc3cccc(-c4cn(-c5ccccc5C(F)(F)F)nn4)c3)c1=O)CC1OCC(C)N1C2=O (stereo not drawn) then?
Output: 105.28

Input: For COc1c2n(cc(C(=O)Nc3cccc(-c4cn(Cc5ccc(C(F)(F)F)cc5)nn4)c3)c1=O)CC1OCC(C)N1C2=O (stereo not drawn) then?
Output: 104.58

Input: For COc1c2n(cc(C(=O)Nc3cccc(-c4cn(-c5cccc(Cl)c5)nn4)c3)c1=O)CC1OCC(C)N1C2=O (stereo not drawn) then?
Output: 125.35

====

Could you please report measured Cell viability for the items listed next?
# Tested on: H460 cells
# experiment: CCK8 cell viability and IC50 measurement, H460
# Format: cell-based, Human
# settings: H460, 25 μM, 72 h
I only need the number, in %, no unit after it.

Input: Endpoint output: Cell viability of COc1c2n(cc(C(=O)Nc3cccc(-c4cn(-c5cccc(Cl)c5)nn4)c3)c1=O)CC1OCC(C)N1C2=O (stereo not shown) . Value?
Output: 104.14

Input: For COc1cccc(Cn2cc(-c3cccc(NC(=O)c4cn5c(c(OC)c4=O)C(=O)N4C(C)COC4C5)c3)nn2)c1 (stereo not shown) then?
Output: 95.01

Input: For COc1c2n(cc(C(=O)Nc3cccc(-c4cn(Cc5ccccc5)nn4)c3)c1=O)CC1OCC(C)N1C2=O (stereo not shown) then?
Output: 118.33

Input: For COc1c2n(cc(C(=O)Nc3cccc(-c4cn(Cc5cccc(F)c5)nn4)c3)c1=O)CC1OCC(C)N1C2=O (stereo not shown) then?
Output: 95.51

Input: For COc1c2n(cc(C(=O)Nc3cccc(-c4cn(Cc5ccc(Cl)cc5)nn4)c3)c1=O)CC1OCC(C)N1C2=O (stereo not shown) then?
Output: 94.49

Input: For COc1c2n(cc(C(=O)Nc3cccc(-c4cn(-c5ccc(C(F)(F)F)cc5)nn4)c3)c1=O)CC1OCC(C)N1C2=O (stereo not shown) then?
Output: 111.72

Input: For COc1c2n(cc(C(=O)Nc3cccc(-c4cn(Cc5ccccc5C(F)(F)F)nn4)c3)c1=O)CC1OCC(C)N1C2=O (stereo not shown) then?
Output: 60.74
